Target: Acyl-CoA:cholesterol transferase (ACAT) (Rattus norvegicus, UniProt Q7TQM4)
Construct: small intestinal mucosal microsome fraction of a 6-week-old male sprague-Dawley rat
Sequence (Q7TQM4 whole entry): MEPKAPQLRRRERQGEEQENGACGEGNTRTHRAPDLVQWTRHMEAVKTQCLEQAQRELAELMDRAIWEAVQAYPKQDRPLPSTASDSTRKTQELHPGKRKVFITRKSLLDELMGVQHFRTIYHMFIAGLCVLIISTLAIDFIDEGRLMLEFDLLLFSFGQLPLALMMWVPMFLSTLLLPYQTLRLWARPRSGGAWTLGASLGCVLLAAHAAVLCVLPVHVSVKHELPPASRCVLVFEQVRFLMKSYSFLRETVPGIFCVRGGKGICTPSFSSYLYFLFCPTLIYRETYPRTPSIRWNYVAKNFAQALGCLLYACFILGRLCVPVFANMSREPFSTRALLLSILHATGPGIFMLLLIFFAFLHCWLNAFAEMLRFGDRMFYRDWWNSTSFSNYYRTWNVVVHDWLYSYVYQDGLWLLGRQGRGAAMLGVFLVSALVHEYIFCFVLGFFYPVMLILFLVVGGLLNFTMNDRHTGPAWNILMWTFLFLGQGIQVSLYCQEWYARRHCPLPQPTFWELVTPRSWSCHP
Assay: Acyl-CoA:cholesterol transferase (ACAT) inhibitory activity (labeled cholesterol ester production, small intestinal mucosal microsome fraction)
Conditions: plotted at a plurality of concentration levels; rat small intestinal mucosal microsomes; read-out: IC50 (50% inhibitory concentration, ACAT)
pIC50: −log10 of the molar value.
readout: pIC50

Cc1ccccc1-c1c(NC(=O)Nc2ccc(F)cc2F)cnc2cc3c(cc12)CCC3
8.41
O=C(Nc1ccc(F)cc1F)Nc1cnc2cc3c(cc2c1-c1ccccc1Cl)CCC3
8.42

###

Target: Acyl-CoA:cholesterol transferase (ACAT) (Rattus norvegicus)
Construct: small intestinal mucosal microsome fraction of a 6-week-old male sprague-Dawley rat; from tissue; host or cells: small intestinal mucosal microsome fraction, 6-week-old male Sprague-Dawley rat
Assay: Acyl-CoA:cholesterol transferase (ACAT) inhibitory activity (labeled cholesterol ester production, small intestinal mucosal microsome fraction)
Type: biochemical, male sprague-Dawley rat
Conditions: 10^-6 M test compound; rat small intestinal mucosal microsomes; read-out: ACAT inhibition rate (%) (labeled cholesterol ester production inhibiting rate)
readout: inhibition at 1 µM (%)

Cc1ccccc1-c1c(NC(=O)Nc2ccc(F)cc2F)cnc2cc3c(cc12)CCC3 [Example 2]
99.2
CC(=O)Oc1c(C)cc(NC(=O)Nc2c(-c3ccccc3C)c3cc4c(cc3n(C)c2=O)CCC4)cc1C [Example 12]
91.1
COc1cc(NC(=O)Nc2c(-c3ccccc3C)c3cc4c(cc3oc2=O)CCC4)cc(OC)c1O [Example 16]
94.4
Cc1ccccc1-c1c(NC(=O)Nc2cc(C)c(O)c(C)c2)c(=O)oc2cc3c(cc12)CCC3 [Example 17]
97.6
COc1ccc(C=CC(=O)Nc2c(-c3ccccc3C)c3cc4c(cc3oc2=O)CCC4)cc1OC [Example 13]
89.9
Cc1ccccc1-c1c(NC(=O)Nc2ccc(F)cc2F)c(=O)oc2cc3c(cc12)CCC3 [Example 3]
99.5
O=C(Nc1ccc(F)cc1F)Nc1cnc2cc3c(cc2c1-c1ccccc1Cl)CCC3 [Example 1]
99.3
Cc1ccccc1-c1c(NC(=O)Nc2ccc(N(C)C)cc2)c(=O)oc2cc3c(cc12)CCC3 [Example 9]
94.6
Cc1ccccc1-c1c(NC(=O)Nc2ccc(F)cc2F)c(=O)n(C)c2cc3c(cc12)CCC3 [Example 19]
98.2
CC(C)(C)c1cc(-c2c(NC(=O)Nc3ccc(F)cc3F)c(=O)oc3cc4c(cc23)CCC4)cc(C(C)(C)C)c1O [Example 8]
99
Cc1ccccc1-c1c(NC(=O)Nc2ccc(F)cc2F)c(=O)oc2cc3c(cc12)CCCC3 [Example 10]
98.7

###

Biological target: Acyl-CoA:cholesterol transferase (ACAT) (Rattus norvegicus, UniProt Q7TQM4)
Construct: small intestinal mucosal microsome fraction of a 6-week-old male sprague-Dawley rat; from tissue; host or cells: small intestinal mucosal microsome fraction, 6-week-old male Sprague-Dawley rat
Assay: Acyl-CoA:cholesterol transferase (ACAT) inhibitory activity (labeled cholesterol ester production, small intestinal mucosal microsome fraction)
Format: biochemical, male sprague-Dawley rat
Conditions: 10^-6 M test compound; rat small intestinal mucosal microsomes; read-out: ACAT inhibition rate (%) (labeled cholesterol ester production inhibiting rate)
readout: inhibition at 1 µM (%)

O=C(Cc1ccc(F)cc1F)Nc1cnc2cc3c(cc2c1-c1ccccc1Cl)CCC3 [Example 4]
91.5
COc1nc2cc3c(cc2c(-c2ccccc2Cl)c1NC(=O)Nc1cc(C)c(OC(C)=O)c(C)c1)CCC3 [Example 11]
75.6
Cc1ccccc1-c1c(NC(=O)Cc2cc(C(C)(C)C)c(O)c(C(C)(C)C)c2)c(=O)oc2cc3c(cc12)CCC3 [Example 15]
89.6
Cc1ccccc1-c1c(NC(=O)C=Cc2ccc(O)c(O)c2)c(=O)oc2cc3c(cc12)CCC3 [Example 18]
86.9
